Data provenance: patent US20200317776A1

Target: T1, human TREM2 Fc fusion (entire TREM2 ECD; only one Fc arm fused to TREM2) (human, UniProt Q9NZC2 19-174)
T1 construct: also called huTREM2-Fc; recombinant hTREM2
T1 sequence: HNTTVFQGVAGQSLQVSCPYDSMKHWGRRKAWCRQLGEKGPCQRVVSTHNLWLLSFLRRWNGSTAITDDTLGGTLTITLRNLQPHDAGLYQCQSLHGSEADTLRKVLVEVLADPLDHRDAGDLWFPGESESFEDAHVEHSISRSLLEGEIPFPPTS
Test: BLI, Fab, monovalent
value type: Kd (nM)
Write it as a number; the unit nM goes unstated.

[
  {
    "binder": "AL2p-19 (antibody, V domains shown, Fab and IgG formats under one id) VH: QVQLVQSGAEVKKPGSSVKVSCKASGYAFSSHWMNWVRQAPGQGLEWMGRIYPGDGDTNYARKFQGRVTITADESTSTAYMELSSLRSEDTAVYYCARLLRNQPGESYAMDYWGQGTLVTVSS VL: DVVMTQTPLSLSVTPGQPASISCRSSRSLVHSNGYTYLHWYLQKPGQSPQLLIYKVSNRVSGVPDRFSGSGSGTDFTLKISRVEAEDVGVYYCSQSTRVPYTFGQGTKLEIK",
    "output unit": "nM",
    "Kd": 4.02
  },
  {
    "binder": "AL2p-14 (antibody, V domains shown, Fab and IgG formats under one id) VH: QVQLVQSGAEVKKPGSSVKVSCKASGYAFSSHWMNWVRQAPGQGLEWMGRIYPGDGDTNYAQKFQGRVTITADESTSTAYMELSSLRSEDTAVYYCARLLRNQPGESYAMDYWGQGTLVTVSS VL: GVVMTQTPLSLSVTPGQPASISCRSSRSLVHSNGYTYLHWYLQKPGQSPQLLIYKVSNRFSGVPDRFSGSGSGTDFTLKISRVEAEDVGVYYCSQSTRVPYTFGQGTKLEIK",
    "output unit": "nM",
    "Kd": 4.74
  }
]

// moving on: another record for Kd
// query Reported Kd for AL2p-51 (antibody, V domains shown, Fab and IgG formats under one id) VH: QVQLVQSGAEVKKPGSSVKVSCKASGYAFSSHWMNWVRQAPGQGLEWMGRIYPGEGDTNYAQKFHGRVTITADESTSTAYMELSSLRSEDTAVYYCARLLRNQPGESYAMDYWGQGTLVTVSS VL: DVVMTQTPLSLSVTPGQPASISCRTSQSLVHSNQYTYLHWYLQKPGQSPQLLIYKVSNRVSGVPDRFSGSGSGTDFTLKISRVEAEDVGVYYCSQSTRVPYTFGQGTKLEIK : what is it?
// result 21.2
